Listed molecules paired with reported composite z-score
experiment: compound binding in COS7 lysate, probe aLAP1, primary screen, cell lysate, small-molecule microarray (AID 1124); details: probe aLAP1, fluorescence, higher = more signal;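 also: lysate comes from COS7 cells expressing LAP1 and is applied at 0.3 µg/mL; score merges spot fluorescence near 667 nm with signal-to-noise over triplicate slides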
Number only, please.

Example molecules with recorded composite z-score:
Structure Smiles String	composite z-score
O=C1C[C@@H](O)[C@@H](O)[C@@H]2[C@@H]3C(=O)N(C4CCCCC4)C(=O)[C@@H]3CC[C@H]12	-0.505
C=CCNC(=O)[C@H]1[C@@H]2C(=O)O[C@@H](c3ccccc3)[C@@H](c3ccccc3)N2[C@@H](c2ccc(O)cc2)[C@]12C(=O)N(C(=O)OCCOC)c1ccc(C#CC3=CCCCC3)cc12	1.78

Attention now shifts to the item below.
[Q] Quick one: composite z-score of `O=C1O[C@@H](c2ccccc2)[C@@H](c2ccccc2)N2[C@@H](c3ccc(OCCO)cc3)[C@]3(C(=O)Nc4ccccc43)[C@@H](C(=O)N3CCN(c4ncccn4)CC3)[C@H]12` ?
[A] 0.88

---

assay: PSAC antagonists in infected red cells, primary screen, cell-based, P. falciparum Indochina, OD700, 2 h (AID 1155);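 also: lysis reports solute entry through the parasite surface anion channel PSAC; channel blockers reduce lysis of infected cells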; details: P. falciparum Indochina infected erythrocytes, osmotic lysis OD700; higher = more signal, called active from +8 up or from −8 down
Active and inactive are the calls of the source.
Listed compounds paired with reported z-score

[Q] Quick one: z-score of `CCOC(=O)CCN1C(=O)[C@H]2[C@H]3[C@H](O)[C@H](O)CC(=NOCc4ccccc4)[C@@H]3CC[C@H]2C1=O` ?
[A] 0.885 (inactive)

[Q] Quick one: z-score of CCOC(=O)[C@H](Cc1ccccc1)NC(=O)CCC1CC(OC(=O)NCc2ccc3c(c2)OCO3)CC2(CCCC(COC(=O)NCC3CCCCC3)O2)O1 (some centres undefined) ?
[A] 0.45 (inactive)

[Q] Quick one: z-score of COc1cccc([C@H]2Oc3ccc(OC)cc3C(=NOC(C)CN3CCCc4nc(C)c(C)cc43)[C@@H]2O)c1 (some centres undefined) ?
[A] 0.542 (inactive)

[Q] Quick one: z-score of `Cc1ccc(S[C@]2(C(=O)O)CC(=O)N(Cc3ccccc3)[C@@H]2c2ccc(CO)cc2I)cc1` ?
[A] 2.07 (inactive)

---

target: Torsin-1A-interacting protein 2 (Homo sapiens); assay: LULL1 binders on small-molecule microarray, primary screen, cell lysate, human LULL1 lysate, 635/667 nm fluorescence (AID 1092); settings: hLULL1 lysate binding, 635 nm fluorescence, higher = more signal;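 also: probe is lysate of COS7 cells overexpressing human LULL1; score merges per-feature 667 nm fluorescence with signal-to-noise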
Measured Quantity: composite z-score
Number only, please.

> print(dat)
                                   compound  numeric.value
1  CC(C)CON=C1C[C@@H](O)[C@@H](O)[C@@H]2[C@@H]3C(=O)N([C@@H](C)c4ccccc4)C(=O)[C@@H]3CC[C@H]12           2.73
2  CN(C)CCCNC(=O)[C@@H]1c2ccccc2C(=O)N(Cc2cc(F)cc(C(F)(F)F)c2)[C@H]1c1ccc(CO)cc1           2.93
3  CCOC(=O)CCN1C(=O)[C@H]2[C@H]3[C@H](O)C=CC(=O)[C@@H]3CC[C@H]2C1=O          0.215
4  CCOC(=O)NN=C1C[C@@H](O)[C@@H](O)[C@@H]2[C@@H]3C(=O)N(C(C)(C)C)C(=O)[C@@H]3CC[C@@H]12         -0.786
5  O=C1C[C@]2(c3ccc([N+](=O)[O-])cc3)C(=O)N(CCN3CCOCC3)c3cc(CO)ccc3[C@H]2N1CC12CC3CC(CC(C3)C1)C2           1.81

[Q] Quick one: composite z-score of `CCOC(=O)CCN1C(=O)[C@H]2[C@H]3[C@H](O)[C@H](O)CC(=NOC[C@@H](O)COCc4ccco4)[C@H]3CC[C@H]2C1=O` ?
[A] 0.756

[Q] Quick one: composite z-score of `CC(C)=CCCC(C)=CCON=C1[C@H]2CCn3c(=O)n(C)c(=O)n3[C@H]2[C@H](O)[C@@H]2O[C@H]12` ?
[A] 0.393

[Q] Quick one: composite z-score of CC(C)c1ccc(NN2C(C(O)c3ccc4c(c3)OCO4)C=CC3C(=O)N(c4ccccc4)C(=O)C32)cc1 (stereo unspecified) ?
[A] 3.5

[Q] Quick one: composite z-score of CN1C(=O)C2C=CC(C(O)c3ccc(Br)cc3)N(N(c3ccccc3)c3ccccc3)C2C1=O (stereo unspecified) ?
[A] 1.94

[Q] Quick one: composite z-score of CCOC(=O)[C@H](CC(C)C)NC(=O)CCC1CC(OC(=O)NCc2cccc3ccccc23)CC2(CCCC(COC(=O)NCCc3ccccc3OC)O2)O1 (stereo partly specified) ?
[A] 2.96

[Q] Quick one: composite z-score of `COc1ccccc1CN1C(=O)c2ccccc2[C@@]2(Cc3ccccc3N(C(C)C)C2=O)[C@@H]1c1ccc(CO)cc1` ?
[A] -0.114

[Q] Quick one: composite z-score of `COC(=O)C1=C(C)N(Cc2ccccc2)[C@]23O[C@](C(=O)OC)(C(=O)N2[C@@H]1c1ccccc1)[C@H]1CCOC(=O)[C@H]13` ?
[A] 0.257

[Q] Quick one: composite z-score of `COC(=O)CC=C[C@@H](C)[C@@H](C=NO[C@H](C)c1cn([C@@H]2COC[C@H]2O)nn1)OC` ?
[A] 0.965

[Q] Quick one: composite z-score of `O=C(CS)NCCCCCNC(=O)[C@H]1C[C@H]2C(=O)N3CCC[C@H]3C(=O)N2[C@H]1c1cccc(OCCO)c1` ?
[A] 2.7

[Q] Quick one: composite z-score of CC1CC/C=C\[C@H]2OC34C=CCN(C(C)C)C(=O)[C@H]3N(CCCO)C(=O)[C@@H]4C2C(=O)O1 (stereo partly specified) ?
[A] 1.29

[Q] Quick one: composite z-score of `COC(=O)[C@@H]1CCCN1C(=O)[C@@H](C)CO` ?
[A] 0.93

---

molecular target: Torsin-1A (Homo sapiens); assay: torsin A binders from cell lysate, primary screen, small-molecule microarray, wild-type, 635/667 nm (AID 1149); conditions: COS7 hTOR1A-WT lysate, 635 nm fluorescence, higher = more signal
Measured Quantity: composite z-score
Number only, please.

Example compounds with recorded composite z-score:
Compound	Tested System	composite z-score
COc1ccc(OC[C@H]2Cc3c(-c4ccccc4)nc4c(c3CO2)CN(CCOc2ccccc2)CC4)cc1	Torsin-1A (Homo sapiens)	0.086
CO[C@@H]1COC(=O)CC=C[C@@H](C)[C@@H]2C=C[C@H](O)[C@@H](COC(=O)[C@H](C)NC(=O)CC=C[C@H]1C)O2	Torsin-1A (Homo sapiens)	1.44
CC(=O)OC[C@H]1O[C@H](CCON=C[C@@H](C)[C@H](OCc2ccccc2)C(C)C)C=C[C@@H]1OC(C)=O	Torsin-1A (Homo sapiens)	0.658
CCc1cc2c(nc1CC)CCN(CCC(C)=NO[C@@H](C)c1cc(-c3c(C)cc(C)cc3C)no1)C2	Torsin-1A (Homo sapiens)	-0.233
CC1CC/C=C\[C@H]2OC34C=CCN(C(C)C)C(=O)[C@H]3N(CCCO)C(=O)[C@@H]4C2C(=O)O1 (stereo partly specified)	Torsin-1A (Homo sapiens)	1.72
COc1ccc(O[C@H]2C=C[C@@H](c3ccccc3)O[C@@H]2COC(=O)CCC(C)=NOC(C)CN2CCCCc3nc(C)c(C)cc32)cc1 (stereo partly specified)	Torsin-1A (Homo sapiens)	-0.406
COC(=O)[C@@H]1CCCN1C(=O)[C@@H](C)CO	Torsin-1A (Homo sapiens)	1.26
Cn1cccc1C(O)C1C=CC2C(=O)NC(=O)C2N1Nc1ccccn1 (stereo unspecified)	Torsin-1A (Homo sapiens)	0.3

Attention now shifts to the item below.
[Q] Recorded composite z-score for `CC(C)(C)OC(=O)CC[C@]1(C(N)=O)COC(c2ccc(OCCCO)cc2)=N1` with Torsin-1A (Homo sapiens), please?
[A] 0.833

---

assay: fission yeast growth modulation, primary screen, strain 972, OD600, 24 h, no modulator (AID 1090);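 also: basal condition with compound alone and no growth modifier present; test concentration not given here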; details: S. pombe 972 growth, higher = more signal, called active from +8 up or from −8 down
Active and inactive are the calls of the source.
Measured Quantity: z-score

> print(dat)
                    structure.smiles.string             result
1  O=C(NN=C1C[C@@H](O)[C@@H](O)[C@@H]2[C@@H]3C(=O)N(c4ccc(F)cc4F)C(=O)[C@@H]3CC[C@@H]12)OCc1ccccc1   0.664 (inactive)
2  COc1ccc(O[C@H]2C=C[C@@H](c3ccccc3)O[C@@H]2COC(=O)N2CCCCC2)cc1  -0.897 (inactive)
3  COC(=O)[C@@H]1CC[C@H](C)[C@@H](c2ccc(C)cc2)N1C(=O)c1ccc(C=NOC[C@@H](O)COCc2ccco2)cc1   0.165 (inactive)
4  CCOC(=O)C[C@H]1[C@H](OC(=O)c2cc3ccccc3oc2=O)[C@@H](NC(=O)c2ccc3ccccc3n2)c2cc(OCCCO)ccc2N1C(=O)c1ccccc1  -0.738 (inactive)
5  CO[C@@H]1COC(=O)[C@H](C)NC(=O)[C@@H](C)COC(=O)CCC[C@H]1C   0.381 (inactive)
6  NC(=O)NCC#Cc1ccc2c(c1)[C@]1(C(=O)N2)[C@H](c2ccc(O)cc2)N2[C@H](c3ccccc3)[C@H](c3ccccc3)OC(=O)[C@H]2[C@@H]1C(=O)N1CCCCCCC1  -0.447 (inactive)

Attention now shifts to the item below.
[Q] Quick one: z-score of `CC(C)[C@@H](OCc1ccccc1)[C@H](C)C=NOC[C@@H](C)[C@H](OCc1ccccc1)C(C)C` ?
[A] 0.893 (inactive)
